- assay overview: activity coefficient (dimensionless); of the first substance listed, at infinite dilution; xn = mol fraction of the nth substance listed
- run parameters: 318.15 K; 101 kPa; Liquid; Chromatography; x1 = 0
outcome measure: activity coefficient

> print(dat)
                                   molecule       outcome.measure  experimental.value
1  Cc1ccc(C)cc1 [1,4-dimethylbenzene] + CCCC[n+]1ccc(C)cc1.O=S(=O)([N-]S(=O)(=O)C(F)(F)F)C(F)(F)F  activity coefficient                1.35
2  CCO [ethanol] + CCCC[n+]1ccc(C)cc1.O=S(=O)([N-]S(=O)(=O)C(F)(F)F)C(F)(F)F  activity coefficient                1.56
3  C=CCCC [1-pentene] + CCCC[n+]1ccc(C)cc1.O=S(=O)([N-]S(=O)(=O)C(F)(F)F)C(F)(F)F  activity coefficient                5.42

----------
- assay overview: activity coefficient (dimensionless); of the first substance listed, at infinite dilution; xn = mol fraction of the nth substance listed
- run parameters: 318.15 K; 101 kPa; Liquid; Chromatography; x1 = 0
The reader will find reported activity coefficient values listed item by item below.
outcome measure: activity coefficient

> print(dat)
                                   compound  experimental.value
1  CCCCO [butan-1-ol] + CCCC[n+]1ccc(C)cc1.O=S(=O)([N-]S(=O)(=O)C(F)(F)F)C(F)(F)F                2.26
2  CCCCC [pentane] + CCCC[n+]1ccc(C)cc1.O=S(=O)([N-]S(=O)(=O)C(F)(F)F)C(F)(F)F                11.2
3  C#CCCCCCC [1-octyne] + CCCC[n+]1ccc(C)cc1.O=S(=O)([N-]S(=O)(=O)C(F)(F)F)C(F)(F)F                 4.4
4  C1CCCCCC1 [cycloheptane] + CCCC[n+]1ccc(C)cc1.O=S(=O)([N-]S(=O)(=O)C(F)(F)F)C(F)(F)F                9.45
5  C1CCCCCCC1 [cyclooctane] + CCCC[n+]1ccc(C)cc1.O=S(=O)([N-]S(=O)(=O)C(F)(F)F)C(F)(F)F                  12
6  CCCCCCC [heptane] + CCCC[n+]1ccc(C)cc1.O=S(=O)([N-]S(=O)(=O)C(F)(F)F)C(F)(F)F                17.7
7  CCCCCC [hexane] + CCCC[n+]1ccc(C)cc1.O=S(=O)([N-]S(=O)(=O)C(F)(F)F)C(F)(F)F                13.5

----------
The reader will find reported activity coefficient values listed item by item below.
- assay overview: activity coefficient (dimensionless); of the first substance listed, at infinite dilution; xn = mol fraction of the nth substance listed
- run parameters: 358.15 K; 101 kPa; Liquid; Chromatography; x1 = 0
outcome measure: activity coefficient

> print(dat)
                                    compound       outcome.measure  experimental.value
 1  CCCCCCCCC [nonane] + CCCC[n+]1ccc(C)cc1.O=S(=O)([N-]S(=O)(=O)C(F)(F)F)C(F)(F)F  activity coefficient                23.8
 2  C1CCOC1 [tetrahydrofuran] + CCCC[n+]1ccc(C)cc1.O=S(=O)([N-]S(=O)(=O)C(F)(F)F)C(F)(F)F  activity coefficient               0.683
 3  C#CCCCCCC [1-octyne] + CCCC[n+]1ccc(C)cc1.O=S(=O)([N-]S(=O)(=O)C(F)(F)F)C(F)(F)F  activity coefficient                4.34
 4  C1CCCC1 [cyclopentane] + CCCC[n+]1ccc(C)cc1.O=S(=O)([N-]S(=O)(=O)C(F)(F)F)C(F)(F)F  activity coefficient                4.81
 5  C#CCCC [1-pentyne] + CCCC[n+]1ccc(C)cc1.O=S(=O)([N-]S(=O)(=O)C(F)(F)F)C(F)(F)F  activity coefficient                1.93
 6  CCCCO [butan-1-ol] + CCCC[n+]1ccc(C)cc1.O=S(=O)([N-]S(=O)(=O)C(F)(F)F)C(F)(F)F  activity coefficient                1.57
 7  C#CCCCCC [1-heptyne] + CCCC[n+]1ccc(C)cc1.O=S(=O)([N-]S(=O)(=O)C(F)(F)F)C(F)(F)F  activity coefficient                3.29
 8  Cc1ccccc1 [toluene] + CCCC[n+]1ccc(C)cc1.O=S(=O)([N-]S(=O)(=O)C(F)(F)F)C(F)(F)F  activity coefficient                1.07
 9  CCCCC [pentane] + CCCC[n+]1ccc(C)cc1.O=S(=O)([N-]S(=O)(=O)C(F)(F)F)C(F)(F)F  activity coefficient                8.88
10  CCCCCCC [heptane] + CCCC[n+]1ccc(C)cc1.O=S(=O)([N-]S(=O)(=O)C(F)(F)F)C(F)(F)F  activity coefficient                13.9
11  C1CCCCCC1 [cycloheptane] + CCCC[n+]1ccc(C)cc1.O=S(=O)([N-]S(=O)(=O)C(F)(F)F)C(F)(F)F  activity coefficient                7.46
12  CC(C)=O [acetone] + CCCC[n+]1ccc(C)cc1.O=S(=O)([N-]S(=O)(=O)C(F)(F)F)C(F)(F)F  activity coefficient               0.445
13  C=CCCC [1-pentene] + CCCC[n+]1ccc(C)cc1.O=S(=O)([N-]S(=O)(=O)C(F)(F)F)C(F)(F)F  activity coefficient                 4.8
14  CCCCCCCCCC [decane] + CCCC[n+]1ccc(C)cc1.O=S(=O)([N-]S(=O)(=O)C(F)(F)F)C(F)(F)F  activity coefficient                31.9
15  CCCOCCC [dipropyl ether] + CCCC[n+]1ccc(C)cc1.O=S(=O)([N-]S(=O)(=O)C(F)(F)F)C(F)(F)F  activity coefficient                4.38

----------
- assay overview: activity coefficient (dimensionless); of the first substance listed, at infinite dilution; xn = mol fraction of the nth substance listed
- run parameters: 368.15 K; 101 kPa; Liquid; Chromatography; x1 = 0
The reader will find reported activity coefficient values listed item by item below.
outcome measure: activity coefficient

> print(dat)
                                   compound  experimental.value
1  C1CCOC1 [tetrahydrofuran] + CCCC[n+]1ccc(C)cc1.O=S(=O)([N-]S(=O)(=O)C(F)(F)F)C(F)(F)F               0.693
2  COC(C)(C)C [2-methoxy-2-methylpropane] + CCCC[n+]1ccc(C)cc1.O=S(=O)([N-]S(=O)(=O)C(F)(F)F)C(F)(F)F                2.15
3  O [water] + CCCC[n+]1ccc(C)cc1.O=S(=O)([N-]S(=O)(=O)C(F)(F)F)C(F)(F)F                2.05
4  CCO [ethanol] + CCCC[n+]1ccc(C)cc1.O=S(=O)([N-]S(=O)(=O)C(F)(F)F)C(F)(F)F                1.04
5  Cc1cccc(C)c1 [1,3-dimethylbenzene] + CCCC[n+]1ccc(C)cc1.O=S(=O)([N-]S(=O)(=O)C(F)(F)F)C(F)(F)F                1.51

----------
- assay overview: activity coefficient (dimensionless); of the first substance listed, at infinite dilution; xn = mol fraction of the nth substance listed
- run parameters: 328.15 K; 101 kPa; Liquid; Chromatography; x1 = 0
The reader will find reported activity coefficient values listed item by item below.
outcome measure: activity coefficient

> print(dat)
                                    compound  experimental.value
 1  C#CCCCC [1-hexyne] + CCCC[n+]1ccc(C)cc1.O=S(=O)([N-]S(=O)(=O)C(F)(F)F)C(F)(F)F                2.44
 2  CCCCCC [hexane] + CCCC[n+]1ccc(C)cc1.O=S(=O)([N-]S(=O)(=O)C(F)(F)F)C(F)(F)F                12.7
 3  CCCO [propan-1-ol] + CCCC[n+]1ccc(C)cc1.O=S(=O)([N-]S(=O)(=O)C(F)(F)F)C(F)(F)F                1.67
 4  Cc1ccccc1C [1,2-dimethylbenzene] + CCCC[n+]1ccc(C)cc1.O=S(=O)([N-]S(=O)(=O)C(F)(F)F)C(F)(F)F                1.24
 5  C1CCOC1 [tetrahydrofuran] + CCCC[n+]1ccc(C)cc1.O=S(=O)([N-]S(=O)(=O)C(F)(F)F)C(F)(F)F               0.653
 6  C=CCCCCCC [oct-1-ene] + CCCC[n+]1ccc(C)cc1.O=S(=O)([N-]S(=O)(=O)C(F)(F)F)C(F)(F)F                11.8
 7  c1ccccc1 [benzene] + CCCC[n+]1ccc(C)cc1.O=S(=O)([N-]S(=O)(=O)C(F)(F)F)C(F)(F)F               0.735
 8  c1ccsc1 [thiophene] + CCCC[n+]1ccc(C)cc1.O=S(=O)([N-]S(=O)(=O)C(F)(F)F)C(F)(F)F               0.649
 9  CCOCC [diethyl ether] + CCCC[n+]1ccc(C)cc1.O=S(=O)([N-]S(=O)(=O)C(F)(F)F)C(F)(F)F                2.08
10  COC(C)(C)C [2-methoxy-2-methylpropane] + CCCC[n+]1ccc(C)cc1.O=S(=O)([N-]S(=O)(=O)C(F)(F)F)C(F)(F)F                2.06
11  C1CCCCC1 [cyclohexane] + CCCC[n+]1ccc(C)cc1.O=S(=O)([N-]S(=O)(=O)C(F)(F)F)C(F)(F)F                7.31
12  Cc1ccc(C)cc1 [1,4-dimethylbenzene] + CCCC[n+]1ccc(C)cc1.O=S(=O)([N-]S(=O)(=O)C(F)(F)F)C(F)(F)F                1.38
13  CCCCCCCC [octane] + CCCC[n+]1ccc(C)cc1.O=S(=O)([N-]S(=O)(=O)C(F)(F)F)C(F)(F)F                22.1

Ref: the NIST ThermoML archive (doi:10.1016/j.jct.2009.06.011)
